- TEST DETAILS: Metabolic stability in human liver S9 fraction incubated for 60 mins by LC-MS/MS analysis
- Format: ADME, subcellular
- ASSAY CONTEXT: read-out: Stability
Starred links: 1 amine or outer side, 2 acyl side, 3 side chain; linkers in the order of their positions; H or OH if unused. Non-standard residues stand in square brackets, D forms with d. Residues, ends and D or L forms follow the SMILES beside them. 1Nal = N[C@@H](Cc1cccc2ccccc12)C(=O)O; NHCH2CH2SCH2CO = O=C(CSCCN[*:1])[*:2]; NMeF = CN[C@@H](Cc1ccccc1)C(=O)O; hCha = N[C@@H](CCC1CCCCC1)C(=O)O; αMeV = CC(C)[C@](C)(N)C(=O)O; αMeP = C[C@@]1(C(=O)O)CCCN1
# key: entry, value: remaining at 1 h
Please respond with the number in % and leave the unit unwritten.

Worked set:
INSERT INTO measurements (compound, units_label, recorded_result) VALUES
  ('CC(C)C[C@@H]1NC(=O)[C@H](C(C)C)NC(=O)[C@@H]2CCCN2C(=O)[C@H](C(C)C)NC(=O)[C@H](Cc2ccccc2)NC(=O)CSCCNC(=O)[C@H](Cc2ccccc2)N(C)C(=O)[C@H](CC(C)C)NC(=O)[C@H](Cc2cccc3ccccc23)NC1=O (cyclo([1Nal]L[NMeF][NHCH2CH2SCH2CO]FVPVL))', '%', 46),
  ('CC(C)C[C@@H]1NC(=O)[C@H](C(C)C)NC(=O)[C@]2(C)CCCN2C(=O)[C@H](C(C)C)NC(=O)[C@H](Cc2ccccc2)NC(=O)CSCCNC(=O)CNC(=O)[C@H](Cc2ccccc2)N(C)C(=O)[C@H](CC(C)C)NC(=O)[C@H](CCC2CCCCC2)NC1=O (cyclo(FV[αMeP]VL[hCha]L[NMeF]G[NHCH2CH2SCH2CO]))', '%', 85),
  ('CC(C)C[C@@H]1NC(=O)[C@](C)(C(C)C)NC(=O)[C@@H]2CCCN2C(=O)[C@H](C(C)C)NC(=O)[C@H](Cc2ccccc2)NC(=O)CSCCNC(=O)[C@H](Cc2ccccc2)N(C)C(=O)[C@H](CC(C)C)NC(=O)[C@H](Cc2cccc3ccccc23)NC1=O (cyclo([1Nal]L[NMeF][NHCH2CH2SCH2CO]FVP[αMeV]L))', '%', 69),
  ('CC(C)C[C@@H]1NC(=O)[C@H](C(C)C)NC(=O)[C@@H]2CCCN2C(=O)[C@H](C(C)C)NC(=O)[C@H](Cc2ccccc2)NC(=O)CSCCNC(=O)CNC(=O)[C@H](Cc2ccccc2)N(C)C(=O)[C@H](CC(C)C)NC(=O)[C@H](Cc2c[nH]c3ccccc23)NC1=O (cyclo(FVPVLWL[NMeF]G[NHCH2CH2SCH2CO]))', '%', 23);

Query compound follows.
Form: compound = CC(C)C[C@@H]1NC(=O)[C@H](C(C)C)NC(=O)[C@]2(C)CCCN2C(=O)[C@H](C(C)C)NC(=O)[C@H](Cc2ccccc2)NC(=O)CSCCNC(=O)[C@H](Cc2ccccc2)N(C)C(=O)[C@H](CC(C)C)NC(=O)[C@H](Cc2cccc3ccccc23)NC1=O (cyclo([1Nal]L[NMeF][NHCH2CH2SCH2CO]FV[αMeP]VL)) ; remaining at 1 h = 86
